I'd appreciate it if you could supply Tmax values for the items below.
assay.text: in vivo
settings: Wistar, rat, po, 2 mg/kg
Answers are plain numbers, in min.

Field: example entries. Status: answers known.
Cc1nc(C)n(CC(=O)N2CCN(c3sc(C(F)(F)F)nc3-c3nc4ccccc4[nH]3)C[C@H]2C)n1
30
COc1cc2nc(-c3nc(C(F)(F)F)sc3N3CCN(C(=O)Cn4cnc5cccnc54)[C@H](C)C3)[nH]c2cc1OC
30

Asked: Look up Tmax for this compound: Cc1nc(C)n(CC(=O)N2CCN(c3sc(C(F)(F)F)nc3-c3nc4ccc(-c5noc(C)n5)cc4[nH]3)C[C@H]2C)n1
Given back: 15

* * *

assay.text: Clearance in Wistar rat at 2 mg/kg, po
settings: in vivo
measured.quantity: CL/F (mL/min/kg)
Numbers only, in mL/min/kg.

Cc1nc(C)n(CC(=O)N2CCN(c3sc(C(F)(F)F)nc3-c3nc4ccccc4[nH]3)C[C@H]2C)n1
6
Cc1nc(C)n(CC(=O)N2CCN(c3sc(C(F)(F)F)nc3-c3nc4ccc(-c5noc(C)n5)cc4[nH]3)C[C@H]2C)n1
14

Read the next record carefully.
Asked: Look up CL/F for this compound: COc1cc2nc(-c3nc(C(F)(F)F)sc3N3CCN(C(=O)Cn4cnc5cccnc54)[C@H](C)C3)[nH]c2cc1OC
Given back: 49

* * *

assay.text: Volume of distribution in dog
Format: ADME, Canis lupus familiaris
settings: in vivo
measured.quantity: Vd (L/kg)
One number for each entry, in L/kg.

Asked: Look up Vd for this compound: Cc1nc(C)n(CC(=O)N2CCN(c3sc(C(F)(F)F)nc3-c3nc4ccc(-c5noc(C)n5)cc4[nH]3)C[C@H]2C)n1
Given back: 2.2

* * *

assay.text: in vivo
settings: Balb/c, mouse, po, 10 mg/kg
measured.quantity: Tmax (min)
One number for each entry, in min.

Field: example entries. Status: answers known.
Cc1nc(C)n(CC(=O)N2CCN(c3sc(C(F)(F)F)nc3-c3nc4ccc(C5CCOCC5)cc4[nH]3)C[C@H]2C)n1
18
Cc1nc(C)n(CC(=O)N2CCN(c3sc(C(F)(F)F)nc3-c3nc4ccc(-c5noc(C)n5)cc4[nH]3)C[C@H]2C)n1
15
Cc1nc(C)n(CC(=O)N2CCN(c3sc(C(F)(F)F)nc3-c3nc4c(F)cccc4[nH]3)C[C@H]2C)n1
15

Each molecule below has a reported value. Please supply its Tmax.
1. Cc1nc(C)n(CC(=O)N2CCN(c3sc(C(F)(F)F)nc3-c3nc4ccc(C5CCN(C)CC5)cc4[nH]3)C[C@H]2C)n1
2. C[C@@H]1CN(c2sc(C(F)(F)F)nc2-c2nc3ccccc3[nH]2)CCN1C(=O)Cn1cccn1

Given back:
1. 180
2. 15

* * *

assay.text: Solubility of the compound in FaSSIF
settings: simulated gi fluid
I'd appreciate it if you could supply solubility values for the items below.
Answers are plain numbers, in µg/mL.

Field: example entries. Status: answers known.
Cc1nn(CC(=O)N2CCN(c3sc(C(F)(F)F)nc3-c3nc4ccccc4[nH]3)C[C@H]2C)cc1CN(C)C
649
C[C@@H]1CN(c2sc(C(F)(F)F)nc2-c2nc3ccccc3[nH]2)CCN1C(=O)Cn1cnc2cccnc21
13
C[C@@H]1CN(c2sc(C(F)(F)F)nc2-c2nc3ccccc3[nH]2)CCN1C(=O)Cn1cccn1
352

Read the next record carefully.
Asked: Look up solubility for this compound: Cc1nc(C)n(CC(=O)N2CCN(c3sc(C(F)(F)F)nc3-c3nc4ccccc4[nH]3)C[C@H]2C)n1
Given back: 440
